From: PubChem BioAssay

# assaySummary: inhibitors of hydroxyurea-induced Chk1 phosphorylation, primary screen, imaging, HeLa, phospho-Chk1 antibody, percent positive cells (AID 1186)
# measurementParameters: hydroxyurea-induced phospho-Chk1 immunofluorescence imaging, higher = more signal
Activity calls are given as the source filed them. No rule for the calls is given here.
quantityKind: z-score

Below, 3 compounds whose answers are already recorded.
CC(C)NC(=O)[C@@]1(c2ccc([N+](=O)[O-])cc2)CC(=O)N(CC23CC4CC(CC(C4)C2)C3)[C@@H]1c1ccc(CO)cc1I	-0.122 (inactive)
CC(C)(C)OC(=O)CC[C@]1(C(N)=O)COC(c2ccc(OCCCO)cc2)=N1	0.764 (inactive)
CN1C(=O)C2C(C1=O)C1C=C(CCCO)C2C(c2ccc(CN3CCCC3)cc2)N1C (stereo not drawn)	-0.0348 (inactive)

List z-score for every entry below, keeping the order given.
1. CC(C)(C)OC(=O)CC[C@]1(C(=O)NCc2ccccc2)N=C(c2ccc(OCCCO)cc2)O[C@H]1c1ccccc1
2. CS(=O)(=O)CCOC(=O)C1=CC(CCCO)=CC(c2cccs2)N(Cc2cccc(OC(F)(F)F)c2)C=C1C(=O)OCCS(C)(=O)=O (stereo not drawn)
3. COCC(=C=CC[C@@H](O)c1ccccc1OCCO)CCO
4. COC(=O)[C@@H]1N=C(c2ccc(OCCCO)cc2)O[C@@H]1c1ccccc1N=[N+]=[N-]
5. C=C(/C(=C/C[C@H](OC(C)=O)c1ccc(OCCO)cc1)c1cnc2ccccc2c1)C(C)C

Result:
-0.179 (inactive)
0.724 (inactive)
-0.595 (inactive)
-0.292 (inactive)
-0.319 (inactive)

----------
# assaySummary: small-molecule microarray binders of probe aCHRDL2, primary screen, biochemical, biotinylated probe, 635/667 nm fluorescence (AID 1100)
# measurementParameters: higher = more signal
quantityKind: composite z-score
Give bare numbers.

Examples with their reported composite z-score follow.
CC[C@@H](c1ccccc1)n1c(=O)n2n(c1=O)[C@H]1[C@H](O)[C@@H]3O[C@@H]3C(=NOCC(C)C)[C@H]1CC2	-0.532
CCOC(=O)NN=C1C[C@@H](O)[C@@H](O)[C@@H]2[C@@H]3C(=O)N(C4CCCCC4)C(=O)[C@@H]3CC[C@H]12	-0.0663
COC(=O)CC=C[C@H](C)[C@H](CO)NS(=O)(=O)c1ccc(C)cc1	-0.707

Here is another compound to look at.
Quick note, composite z-score for O=C1NC(=O)C2C1C=CC(C(O)Cc1ccccc1)N2Nc1ccccn1 (centres undefined) landed at -0.321

----------
# assaySummary: binders of probe aFST on microarray, primary screen, stem cell growth factor project, biochemical, small-molecule microarray, fluorescence 635/667 (AID 1086);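 also: score merges 667 nm fluorescence with signal-to-noise of each printed compound spot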
# measurementParameters: higher = more signal
quantityKind: composite z-score
Numbers only.

Worked set:
COC(=O)[C@@H]1CC[C@H](C)[C@@H](c2ccc(C)cc2)N1C(=O)c1ccc(C=NOC(C)CN2CCCCc3nc(C)c(C)cc32)cc1 (some centres not stated)	0.165
CCOC(=O)CCN1C(=O)[C@H]2[C@H]3[C@H](O)[C@H](O)CC(=NOC[C@@H](O)COCc4ccco4)[C@@H]3CC[C@H]2C1=O	0.356
CC(C)=CCCC(C)=CCON=C1[C@H]2CCn3c(=O)n(Cc4cc5c(cc4Cl)OCO5)c(=O)n3[C@H]2[C@H](O)[C@@H]2O[C@H]12	0.661
COc1ccc(O[C@H]2C=C[C@@H](c3ccccc3)O[C@@H]2COC(=O)N2CCCCC2)cc1	-0.0007
O=C(NN=C1C[C@@H](O)[C@@H](O)[C@@H]2[C@@H]3C(=O)N(c4ccc(F)cc4F)C(=O)[C@@H]3CC[C@@H]12)OCc1ccccc1	0.51

Give composite z-score for all compounds that follow.
1. CC(C)c1ccc(NN2C(C(O)c3ccc4c(c3)OCO4)C=CC3C(=O)N(c4ccccc4)C(=O)C32)cc1 (configuration not stated)
2. O=C1C[C@]2(c3ccc([N+](=O)[O-])cc3)C(=O)N(CCN3CCOCC3)c3cc(CO)ccc3[C@H]2N1CC12CC3CC(CC(C3)C1)C2

Result:
1. 1.07
2. 0.337
